# TEST NAME: Oral bioavailability in Swiss nude mouse at 100 mg/kg administered using captisol and phosphate buffer system formulation by LC-ESI-MS/MS method
# APPLIED CONDITIONS: in vivo
Each item that follows carries a reported bioavailability.

Some solved entries appear below for comparison.
[
  {
    "TEST SMILES": "Nc1ncnc2c1nc(Sc1cc3c(cc1Br)OCO3)n2CCC1CCN(C=O)CC1",
    "REPORTED MEASUREMENT": "> 50%"
  },
  {
    "TEST SMILES": "Nc1ncnc2c1nc(Sc1cc3c(cc1Br)OCCO3)n2CCC1CCN(C(=O)CO)CC1",
    "REPORTED MEASUREMENT": "> 50%"
  }
]

Complete the entry with bioavailability for C[C@@H](O)C(=O)N1CCC(CCn2c(Sc3cc4c(cc3Br)OCCO4)nc3c(N)ncnc32)CC1
> 50%

Complete the entry with bioavailability for C[C@@H](O)C(=O)N1CCC(CCn2c(Sc3cc4c(cc3Br)OCO4)nc3c(N)ncnc32)CC1
> 50%

Complete the entry with bioavailability for C[C@H](O)C(=O)N1CCC(CCn2c(Sc3cc4c(cc3Br)OCO4)nc3c(N)ncnc32)CC1
> 50%

Complete the entry with bioavailability for Nc1ncnc2c1nc(Sc1cc3c(cc1Br)OCCO3)n2CCC1CCN(C=O)CC1
> 50%

Complete the entry with bioavailability for C[C@H](O)C(=O)N1CCC(CCn2c(Sc3cc4c(cc3Br)OCCO4)nc3c(N)ncnc32)CC1
> 50%

Complete the entry with bioavailability for Nc1ncnc2c1nc(Sc1cc3c(cc1Br)OCO3)n2CCC1CCN(C(=O)CO)CC1
> 50%

* * *

# TEST NAME: AUC in Swiss nude mouse at 100 mg/kg, po by LC-ESI-MS/MS method
# Assay type: ADME, organism-based
# Design: dose 100 mg/kg, route oral
# APPLIED CONDITIONS: plasma
OBSERVABLE: AUC (ng·h/mL)

Some solved entries appear below for comparison.
[
  {
    "TEST SMILES": "Nc1ncnc2c1nc(Sc1cc3c(cc1Br)OCCO3)n2CCC1CCN(C=O)CC1",
    "OBSERVABLE": "AUC",
    "REPORTED MEASUREMENT": 38000
  },
  {
    "TEST SMILES": "Nc1ncnc2c1nc(Sc1cc3c(cc1Br)OCO3)n2CCC1CCN(C=O)CC1",
    "OBSERVABLE": "AUC",
    "REPORTED MEASUREMENT": 63900
  },
  {
    "TEST SMILES": "C[C@H](O)C(=O)N1CCC(CCn2c(Sc3cc4c(cc3Br)OCCO4)nc3c(N)ncnc32)CC1",
    "OBSERVABLE": "AUC",
    "REPORTED MEASUREMENT": 40400
  }
]

a. C[C@H](O)C(=O)N1CCC(CCn2c(Sc3cc4c(cc3Br)OCO4)nc3c(N)ncnc32)CC1
b. C[C@@H](O)C(=O)N1CCC(CCn2c(Sc3cc4c(cc3Br)OCO4)nc3c(N)ncnc32)CC1
c. Nc1ncnc2c1nc(Sc1cc3c(cc1Br)OCCO3)n2CCC1CCN(C(=O)CO)CC1
# ascending order, key=AUC Thanks in advance for listing the labels in the requested order.
c, b, a

* * *

# TESTED ON: Heat shock protein HSP90 (Homo sapiens, UniProt P07900+P08238)
# TEST NAME: Inhibition of human HSP90 in HCT116 cells expressing Her2 gene assessed as degradation of Her2 after 4 hrs by luciferase reporter gene assay
# Format: cell-based
# APPLIED CONDITIONS: hct-116
OBSERVABLE: IC50 (nM)

Some solved entries appear below for comparison.
[
  {
    "TEST SMILES": "N#Cc1cc2c(cc1Sc1nc3c(N)ncnc3n1CCC1CCN(C=O)CC1)OCO2",
    "UNIT ANNOTATION": "nM",
    "REPORTED MEASUREMENT": 250
  },
  {
    "TEST SMILES": "C[C@H](O)C(=O)N1CCC(CCn2c(Sc3cc4c(cc3Cl)OCO4)nc3c(N)ncnc32)CC1",
    "UNIT ANNOTATION": "nM",
    "REPORTED MEASUREMENT": 540
  },
  {
    "TEST SMILES": "Nc1ncnc2c1nc(Sc1cc3c(cc1Br)OCC3)n2CCC1CCN(C=O)CC1",
    "UNIT ANNOTATION": "nM",
    "REPORTED MEASUREMENT": 280
  }
]

I. C[C@H](O)C(=O)N1CCC(CCn2c(Sc3cc4c(cc3Br)CCO4)nc3c(N)ncnc32)CC1
II. Nc1ncnc2c1nc(Sc1cc3ccoc3cc1Br)n2CCC1CCN(C=O)CC1
Given I and given II , which shows the smaller recorded IC50? // output: label of the selected item
I
(I: 28 nM, II: 660 nM)

* * *

# TESTED ON: Heat shock protein HSP90 (Homo sapiens, UniProt P07900+P08238)
# TEST NAME: Inhibition of human HSP90 using BODIPY labelled geldanamycin as substrate by fluorescence polarization assay
# Type: protein assay
OBSERVABLE: IC50 (nM)

Some solved entries appear below for comparison.
[
  {
    "COMPOUND": "Nc1ncnc2c1nc(Sc1cc3c(cc1Br)OCCO3)n2CCC1CCN(C=O)CC1",
    "UNIT ANNOTATION": "nM",
    "IC50": 60
  },
  {
    "COMPOUND": "C[C@H](O)C(=O)N1CCC(CCn2c(Sc3cc4c(cc3Br)CCO4)nc3c(N)ncnc32)CC1",
    "UNIT ANNOTATION": "nM",
    "IC50": 34
  }
]

P. Nc1ncnc2c1nc(Sc1cc3c(cc1Br)OCO3)n2CCc1ccccc1Br [BROMODERIVATIVE]
Q. Nc1ncnc2c1nc(Sc1cc3c(cc1Br)OCO3)n2CC[C@@H]1CCCCN1C=O
Given P and given Q , which shows the smaller recorded IC50? // output: label of the selected item
P

P. CN(C)CC(=O)N1CCC(CCn2c(Sc3cc4c(cc3Br)OCO4)nc3c(N)ncnc32)CC1
Q. Nc1ncnc2c1nc(Sc1cc3c(cc1Br)OCO3)n2CCC1CCN(CC(F)(F)F)CC1
R. C[C@@H](O)C(=O)N1CCC(CCn2c(Sc3cc4c(cc3Br)OCCO4)nc3c(N)ncnc32)CC1
# ascending order, key=IC50 Thanks in advance for listing the labels in the requested order.
P, R, Q

* * *

# TEST NAME: Volume of distribution in Swiss nude mouse at 2.5 mg/kg, iv by LC-ESI-MS/MS method
# Format: ADME, organism-based
# Set-up: dose 2.5 mg/kg, route intravenous
# APPLIED CONDITIONS: in vivo
OBSERVABLE: Vd (L/kg)

Some solved entries appear below for comparison.
[
  {
    "TEST SMILES": "Nc1ncnc2c1nc(Sc1cc3c(cc1Br)OCCO3)n2CCC1CCN(C(=O)CO)CC1",
    "REPORTED MEASUREMENT": 5.93
  },
  {
    "TEST SMILES": "C[C@@H](O)C(=O)N1CCC(CCn2c(Sc3cc4c(cc3Br)OCO4)nc3c(N)ncnc32)CC1",
    "REPORTED MEASUREMENT": 1.32
  },
  {
    "TEST SMILES": "C[C@H](O)C(=O)N1CCC(CCn2c(Sc3cc4c(cc3Br)OCO4)nc3c(N)ncnc32)CC1",
    "REPORTED MEASUREMENT": 2.44
  },
  {
    "TEST SMILES": "C[C@@H](O)C(=O)N1CCC(CCn2c(Sc3cc4c(cc3Br)OCCO4)nc3c(N)ncnc32)CC1",
    "REPORTED MEASUREMENT": 1.35
  },
  {
    "TEST SMILES": "Nc1ncnc2c1nc(Sc1cc3occc3cc1Br)n2CCC1CCN(C=O)CC1",
    "REPORTED MEASUREMENT": 1.06
  }
]

P. Nc1ncnc2c1nc(Sc1cc3c(cc1Br)OCO3)n2CCC1CCN(C=O)CC1
Q. Nc1ncnc2c1nc(Sc1cc3c(cc1Br)OCO3)n2CCC1CCN(C(=O)CO)CC1
Given P and Q , report the one with the higher recorded Vd. // output: label of the selected item
Q

* * *

# TESTED ON: Heat shock protein HSP90 (Homo sapiens, UniProt P07900+P08238)
# TEST NAME: Inhibition of human HSP90 using BODIPY labelled geldanamycin as substrate by fluorescence polarization assay
# Type: protein assay
OBSERVABLE: IC50 (nM)

Some solved entries appear below for comparison.
[
  {
    "TEST SMILES": "Nc1ncnc2c1nc(Sc1cc3c(cc1Br)OCO3)n2CCc1ccccc1Cl",
    "UNIT ANNOTATION": "nM",
    "IC50": 30
  },
  {
    "TEST SMILES": "C[C@H](O)C(=O)N1CCC(CCn2c(Sc3cc4c(cc3Br)OCCO4)nc3c(N)ncnc32)CC1",
    "UNIT ANNOTATION": "nM",
    "IC50": 150
  }
]

A. Nc1ncnc2c1nc(Sc1cc3c(cc1Br)OCC3)n2CCC1CCN(C=O)CC1
B. Nc1ncnc2c1nc(Sc1cc3c(cc1Br)CCO3)n2CCC1CCN(C=O)CC1
C. Nc1ncnc2c1nc(Sc1cc3c(cc1Br)OCO3)n2CCC1CCN(C(=O)CO)CC1
# ascending order, key=IC50 Thanks in advance for listing the labels in the requested order.
B, C, A
(B: 40 nM, C: 110 nM, A: 400 nM)

Values from ChEMBL document CHEMBL2169772
